SYSTEM: human opioid μ receptor (Homo sapiens)
ASSAY INFO: Opioid receptor function test (agonist activity, Lance Ultra cAMP kit), μ receptor
EXPERIMENTAL READOUT: EC50 (µM)
// return numeric value only (unit: µM, not printed)

Below: 3 compounds and their reported EC50.
{"columns": ["COMPOUND", "SYSTEM", "EC50 (µM)"],
 "data": [
  ["Cc1c2c(nn1C1CC1)C[C@]13CCN(CC4CC4)[C@H](Cc4ccc(O)cc41)[C@]3(O)C2 [Compound 83]", "human opioid μ receptor (Homo sapiens)", 0.011],
  ["Cc1c2c(nn1C1CCCC1)C[C@]13CCN(CC4CC4)[C@H](Cc4ccc(O)cc41)[C@]3(O)C2 [Compound 87]", "human opioid μ receptor (Homo sapiens)", 0.028],
  ["Cc1nn(-c2ccccc2)c2c1C[C@@]1(O)[C@H]3Cc4ccc(O)cc4[C@@]1(CCN3C)C2 [Compound 61]", "human opioid μ receptor (Homo sapiens)", 0.257]
]}

Kindly review the next compound as well.
Enquiry: Give human opioid μ receptor (Homo sapiens) EC50 for Cc1c2c(nn1-c1ccccc1)C[C@]13CCN(CC4CC4)[C@H](Cc4ccc(O)cc41)[C@]3(O)C2 [Compound 20]
Return: 0.0081

====

SYSTEM: human opioid μ receptor (Homo sapiens, UniProt P35372)
Construct: host or cells: CHO cells
Sequence (P35372 whole entry): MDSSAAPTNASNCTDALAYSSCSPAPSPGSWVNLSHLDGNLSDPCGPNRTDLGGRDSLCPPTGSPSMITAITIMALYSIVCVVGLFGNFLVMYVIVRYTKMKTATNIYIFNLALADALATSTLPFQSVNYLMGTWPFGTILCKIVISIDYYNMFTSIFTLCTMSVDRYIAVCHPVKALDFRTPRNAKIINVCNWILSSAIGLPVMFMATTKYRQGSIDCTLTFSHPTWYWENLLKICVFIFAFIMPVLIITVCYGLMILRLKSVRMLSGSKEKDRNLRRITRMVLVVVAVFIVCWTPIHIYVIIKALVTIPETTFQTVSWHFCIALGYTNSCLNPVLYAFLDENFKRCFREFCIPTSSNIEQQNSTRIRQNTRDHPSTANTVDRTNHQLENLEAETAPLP
ASSAY INFO: Opioid receptor function test (agonist activity, Lance Ultra cAMP kit), μ receptor
Assay type: cell-based
CONDITION NOTES: maximum reaction relative to control drug DAMGO taken as 100%
Method: Opioid Receptor Function Test Functional activity of the compound provided by the present invention on μ, δ, and κ opioid receptors was examined. Method: Using a Lance Ultra cAMP kit (Perkin Elmer), the functional activity was examined by a predetermined method. […] One hour later, time-resolved fluorescence measurement was performed using an EnVision plate reader (Perkin Elmer). […]
Doc: threshold 20% (exclusive). Items with Emax beneath it return T; others return F.

Sample answers from the record:
{"columns": ["SMILES NOTATION", "GROUP"],
 "data": [
  ["Cc1c2c(nn1C1CCCC1)C[C@]13CCN(CC4CC4)[C@H](Cc4ccc(O)cc41)[C@]3(O)C2", "F"],
  ["Cc1nn(C2CCN(C)CC2)c2c1C[C@@]1(O)[C@H]3Cc4ccc(O)cc4[C@@]1(CCN3CC1CC1)C2", "T"],
  ["Cc1c2c(nn1C1CCC1)C[C@]13CCN(CC4CC4)[C@H](Cc4ccc(O)cc41)[C@]3(O)C2", "F"]
]}

Enquiry: Please let me know if Cc1nn(-c2ccccc2)c2c1C[C@@]1(O)[C@H]3Cc4ccc(O)cc4[C@@]1(CCN3C)C2 shows Emax below 20%.
Return: F

Enquiry: Please let me know if Cc1c2c(nn1C1CCN(C)CC1)C[C@]13CCN(CC4CC4)[C@H](Cc4ccc(O)cc41)[C@]3(O)C2 shows Emax below 20%.
Return: T

Enquiry: Please let me know if Cc1c2c(nn1C(C)C)C[C@]13CCN(CC4CC4)[C@H](Cc4ccc(O)cc41)[C@]3(O)C2 shows Emax below 20%.
Return: T

Enquiry: Please let me know if Cc1c2c(nn1C1CC1)C[C@]13CCN(CC4CC4)[C@H](Cc4ccc(O)cc41)[C@]3(O)C2 shows Emax below 20%.
Return: T

Enquiry: Please let me know if Cc1c2c(nn1-c1ccccc1)C[C@]13CCN(CC4CC4)[C@H](Cc4ccc(O)cc41)[C@]3(O)C2 shows Emax below 20%.
Return: T
